Measured percentage of EdU-negative of individual entries
- Tested on: MCF7;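 further: secreted proteins added to cultured cells, EdU pulse at the end, nuclei found by Hoechst imaging, EdU status from nuclear versus surrounding ring intensity ratio, PBS as neutral control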
- experimental_details: percentage of EdU-negative (G0-arrested) nuclei per well, 72 h; higher = more G0 arrest
- condition: protein concentration 0.0225 µM; reference: sequence is the full UniProt precursor, the tested protein was the secreted form or ectodomain
recorded_endpoint: percentage of EdU-negative (%)

INSERT INTO measurements (query_sequence, observed_value) VALUES
  ('MSSFGYRTLTVALFTLICCPGSDEKVFEVHVRPKKLAVEPKGSLEVNCSTTCNQPEVGGLETSLDKILLDEQAQWKHYLVSNISHDTVLQCHFTCSGKQESMNSNVSVYQPPRQVILTLQPTLVAVGKSFTIECRVPTVEPLDSLTLFLFRGNETLHYETFGKAAPAPQEATATFNSTADREDGHRNFSCLAVLDLMSRGGNIFHKHSAPKMLEIYEPVSDSQMVIIVTVVSVLLSLFVTSVLLCFIFGQHLRQQRMGTYGVRAAWRRLPQAFRP', 24.9),
  ('MARVLKAAAANAVGLFSRLQAPIPTVRASSTSQPLDQVTGSVWNLGRLNHVAIAVPDLEKAAAFYKNILGAQVSEAVPLPEHGVSVVFVNLGNTKMELLHPLGRDSPIAGFLQKNKAGGMHHICIEVDNINAAVMDLKKKKIRSLSEEVKIGAHGKPVIFLHPKDCGGVLVELEQA [Q96PE7]', 23.9),
  ('MKVTGIFLLSALALLSLSGNTGADSLGREAKCYNELNGCTKIYDPVCGTDGNTYPNECVLCFENRKRQTSILIQKSGPC', 24);
